The following binders are shown together with reported Kd values.
Molecular target: T1, colicin E7 DNase (ColE7) (E. coli, UniProt Q47112 444-576)
T1 sequence: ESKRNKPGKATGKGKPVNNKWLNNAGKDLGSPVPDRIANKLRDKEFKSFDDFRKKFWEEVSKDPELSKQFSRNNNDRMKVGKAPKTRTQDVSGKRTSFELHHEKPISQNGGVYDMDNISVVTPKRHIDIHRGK
Experiment: affinity measurements (Kleanthous laboratory; method not stated)

# binder, Kd
records = [
    ("in vitro evolved Im9 variant #8 (Round 8, high stringency) (designed binder, also called Evolved Im variant#8; evolved variant 8) MELKHRISDYTEAEFLQLVTTICDANASSEEELDKLITHFEEMTEHPSGSDLIYWPKEGDDDSPSGIVNTVKQWRAANGKSGFKQG", "3.85 pM"),
]

Turning now to a further record.
(Q) Sample immunity protein 7 (Im7), wild type (other, also called wild-type Im7) MELKNSISDYTEAEFVQLLKEIEKENVAATDDVLDVLLEHFVKITEHPDGTDLIYYPSDNRDDSPEGIVKEIKEWRAANGKPGFKQG — what was its Kd?
(A) ≤ 0.01 pM
